- protocol description: Hemolytic activity, spectrophotometric
- Format: cell-based, human
- test conditions: human, human red blood cells (huRBC), 5% hematocrit, 200 μg/mL, 37 °C
The following molecules are shown together with reported hemolysis at 24 h, 200 µg/mL values.
Form entry: value (%) — number only.

Below: 3 molecules and their reported hemolysis at 24 h, 200 µg/mL.
INSERT INTO results (molecule, quantity_unit, val) VALUES
  ('COc1ccc(C2=Nc3c(N)nc(N)nc3NC(c3ccc(Oc4nc(NCCO)nc(N5CCOCC5)n4)c(OC)c3)C2)cc1 (stereo not shown) [28c]', '%', 7),
  ('COc1ccc(/C=C/C(=O)c2ccc(S(=O)(=O)NCCNc3nc(N(C)C)nc(N4CCOCC4)n3)cc2)cc1 [23c]', '%', 0),
  ('CN(C)c1nc(NCCNS(=O)(=O)c2ccc(C(=O)/C=C/c3ccc(Cl)cc3)cc2)nc(Nc2ccc(F)cc2)n1 [24e]', '%', 9.1);

Continue with the next molecule.
Enquiry: Can you share its hemolysis at 24 h, 200 µg/mL? I mean this molecule: CN(C)c1nc(NCCNS(=O)(=O)c2ccc(C3=Nc4c(N)nc(N)nc4NC(c4ccc(Cl)cc4)C3)cc2)nc(N2CCOCC2)n1 (stereo not shown) [30e]
Return: 2.7
